A collection of compounds and their measured Remaining activity (%)
- Test system: wild-type enzyme RBS
- Format: biochemical, Burkholderia sp. YT strain
- settings: pH 6.5
property: Remaining activity (%)

1) OC(CCCl)c1cccs1 (stereo not shown) : 0
2) CC(=O)c1cccs1 : 72
3) O=C(CCl)c1ccccc1 [Phenacyl chloride] : 0
4) CC(=O)c1ccccc1 : 81
5) CC(C)=O : 80
6) O=C(CCCl)c1cccs1 : 0
7) O=C(CCl)c1cccc(Cl)c1 [m-chlorophenacyl chloride] : 0
